Parameter: MIC. Scope: all listed entries.
# Test system: up to 32 different microorganisms
# experiment summary: in vitro antibacterial activity (MIC), agar dilution on Brain Heart Infusion (BHI) agar with Steers replicator
# Type: cell-based
# condition details: organism code QQ; unit assumed

Below, 3 compounds whose answers are already recorded.
# compound, MIC
measured = [
    ("CCC1OC(=O)C(C)C(=O)C(C)C(OC2OC(C)CC(N(C)C)C2O)C(C)(OCC=Cc2cnc3c([N+](=O)[O-])cccc3c2)CC(C)C(=O)C(C)C2NC(=O)OC12C (stereo not drawn)", "25 µg/mL"),
    ("CCC1OC(=O)C(C)C(=O)C(C)C(OC2OC(C)CC(N(C)C)C2O)C(C)(OCC=Cc2ccc3cc(O)c(C(=O)Nc4ccccc4OC)cc3c2)CC(C)C(=O)C(C)C2NC(=O)OC12C (stereo not drawn)", "> 100 µg/mL"),
    ("CC[C@H]1OC(=O)[C@H](C)C(=O)[C@H](C)[C@@H](O[C@@H]2O[C@H](C)C[C@H](N(C)C)[C@H]2O)[C@@](C)(OCC2COC(C)(C)O2)C[C@@H](C)C(=O)[C@H](C)[C@H]2NC(=O)O[C@@]21C (stereo partly drawn)", "> 100 µg/mL"),
]

Give its MIC value. Item: CCC1OC(=O)C(C)C(=O)C(C)C(OC2OC(C)CC(N(C)C)C2O)C(C)(OCC=Cc2ccnc3ccccc23)CC(C)C(=O)C(C)C2NC(=O)OC12C (stereo not drawn)
100 µg/mL

Would you kindly repeat that for C=C(C#CCO[C@@]1(C)C[C@@H](C)C(=O)[C@H](C)[C@H]2NC(=O)O[C@]2(C)[C@@H](CC)OC(=O)[C@H](C)C(=O)[C@H](C)[C@H]1O[C@@H]1O[C@H](C)C[C@H](N(C)C)[C@H]1O)c1ccccc1 ?
> 100 µg/mL

Would you kindly repeat that for CCC1OC(=O)C(C)C(=O)C(C)C(OC2OC(C)CC(N(C)C)C2O)C(C)(OCC=Cc2ccc(F)c3ccccc23)CC(C)C(=O)C(C)C2NC(=O)OC12C (stereo not drawn) ?
> 100 µg/mL

Would you kindly repeat that for CC[C@H]1OC(=O)[C@H](C)C(=O)[C@H](C)[C@@H](O[C@@H]2O[C@H](C)C[C@H](N(C)C)[C@H]2O)[C@@](C)(OCCNCc2cnc3ccccc3c2)C[C@@H](C)C(=O)[C@H](C)[C@H]2NC(=O)O[C@@]21C ?
6.2 µg/mL

Would you kindly repeat that for CCC1OC(=O)C(C)C(=O)C(C)C(OC2OC(C)CC(N(C)C)C2O)C(C)(OCC(O)c2ccccc2)CC(C)C(=O)C(C)C2NC(=O)OC12C (single isomer, unassigned) [Example 261A] ?
> 100 µg/mL

Would you kindly repeat that for C#CCOC1(C)CC(C)C(=O)C(C)C2NC(=O)OC2(C)C(CC)OC(=O)C(C)C(=O)C(C)C1OC1OC(C)CC(N(C)C)C1O (stereo not drawn) ?
> 100 µg/mL

* * *

Parameter: MIC. Scope: all listed entries.
# System: up to 32 different microorganisms
# experiment summary: in vitro antibacterial activity (MIC), agar dilution on Brain Heart Infusion (BHI) agar with Steers replicator
# Format: cell-based
# condition details: Staphylococcus aureus CMX 642A (code DD); unit assumed
# Procedure: Representative compounds of the present invention were assayed in vitro for antibacterial activity as follows: Twelve petri dishes containing successive aqueous dilutions of the test compound mixed with 10 mL of sterilized Brain Heart Infusion (BHI) agar (Difco 0148-01-5) were prepared. Each plate was inoculated with 1:100 (or 1:10 for slow-growing strains, such as Micrococcus and Streptococcus) dilutions of up to 32 different microorganisms, using a Steers replicator block. […]
Numbers only here, please. The scale is µg/mL.

Below, 6 compounds whose answers are already recorded.
# compound, MIC [µg/mL]
data = [
    ("CC[C@H]1OC(=O)[C@H](C)C(=O)[C@H](C)[C@@H](O[C@@H]2O[C@H](C)C[C@H](N(C)C)[C@H]2O)[C@@](C)(OCC=Cc2ccc(OC)cc2)C[C@@H](C)C(=O)[C@H](C)[C@@H](O)[C@]1(C)O", 1.56),
    ("CC[C@H]1OC(=O)[C@H](C)C(=O)[C@H](C)[C@@H](O[C@@H]2O[C@H](C)C[C@H](N(C)C)[C@H]2O)[C@@](C)(OCC=Cc2ccccc2)C[C@@H](C)C(=O)[C@H](C)[C@H]2NC(=O)O[C@@]21C", 0.1),
    ("CCC1OC(=O)C(C)C(=O)C(C)C(OC2OC(C)CC(N(C)C)C2O)C(C)(OCC=Cc2ccc3ccccc3c2)CC(C)C(=O)C(C)C2NC(=O)OC12C (stereo not drawn)", 0.1),
    ("CC[C@H]1OC(=O)[C@H](C)C(=O)[C@H](C)[C@@H](O[C@@H]2O[C@H](C)C[C@H](N(C)C)[C@H]2O)[C@@](C)(OCC=Cc2ccc(F)cc2)C[C@@H](C)C(=O)[C@H](C)[C@@H](O)[C@]1(C)O", 3.1),
    ("C=CCO[C@@]1(C)C[C@@H](C)C(=O)[C@H](C)[C@H]2N(C)C(=O)O[C@]2(C)[C@@H](CC)OC(=O)[C@H](C)C(=O)[C@H](C)[C@H]1O[C@@H]1O[C@H](C)C[C@H](N(C)C)[C@H]1O", 6.2),
    ("CC[C@H]1OC(=O)[C@H](C)C(=O)[C@H](C)[C@@H](O[C@@H]2O[C@H](C)C[C@H](N(C)C)[C@H]2O)[C@@](C)(OCCCc2cnc3ccccc3c2)C[C@@H](C)C2=NCCN3C(=O)O[C@@]1(C)[C@H]3[C@H]2C", 0.05),
]

Give its MIC value. Item: C=CCOC1(C)CC(C)C(=O)C(C)C2N(CC=C)C(=O)OC2(C)C(CC)OC(=O)C(C)C(=O)C(C)C1OC1OC(C)CC(N(C)C)C1O (stereo not drawn)
25

Would you kindly repeat that for CCC1OC(=O)C(C)C(=O)C(C)C(OC2OC(C)CC(N(C)C)C2O)C(C)(OCC=Cc2ccc3c(c2)OCCO3)CC(C)C(=O)C(C)C2NC(=O)OC12C (stereo not drawn) ?
0.1

Would you kindly repeat that for CC[C@H]1OC(=O)[C@H](C)C(=O)[C@H](C)[C@@H](O[C@@H]2O[C@H](C)C[C@H](N(C)C)[C@H]2O)[C@@](C)(OCC#N)C[C@@H](C)C(=O)[C@H](C)[C@@H](O)[C@]1(C)O ?
3.1
